Assignment: determine reported inhibition at 100 µg/mL for the given molecules.
Biological target: human tyrosinase (Homo sapiens)
Sequence (P14679 19-529): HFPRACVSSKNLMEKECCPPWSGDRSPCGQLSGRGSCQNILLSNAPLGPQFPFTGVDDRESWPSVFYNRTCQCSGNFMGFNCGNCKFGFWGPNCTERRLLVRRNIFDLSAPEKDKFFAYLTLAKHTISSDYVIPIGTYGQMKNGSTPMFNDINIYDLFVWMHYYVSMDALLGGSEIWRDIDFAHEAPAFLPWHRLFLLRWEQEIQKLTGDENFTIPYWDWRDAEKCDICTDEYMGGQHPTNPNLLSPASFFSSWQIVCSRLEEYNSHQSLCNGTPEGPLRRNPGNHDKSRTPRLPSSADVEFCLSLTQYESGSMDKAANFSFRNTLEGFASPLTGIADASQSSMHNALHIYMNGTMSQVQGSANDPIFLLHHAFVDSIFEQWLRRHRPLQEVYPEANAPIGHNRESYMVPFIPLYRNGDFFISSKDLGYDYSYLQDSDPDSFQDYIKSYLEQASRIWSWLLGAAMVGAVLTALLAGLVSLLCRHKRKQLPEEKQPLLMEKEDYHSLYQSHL
Experiment: Enzyme test: conversion of L-DOPA to L-dopaquinone by human tyrosinase (MBTH, absorption at 490 nm)
Type: biochemical
Conditions: Concentration 100 μg/ml; substrate L-DOPA; read-out: Inhibition (% of control) of tyrosinase activity
All answers are understood in %, so give the number only.

Asked: Lookup: inhibition at 100 µg/mL / human tyrosinase (Homo sapiens) / CCN(CC)CCNc1nc(-c2ccc(O)cc2O)cs1
Given back: 80.5

Asked: Lookup: inhibition at 100 µg/mL / human tyrosinase (Homo sapiens) / Oc1ccc(-c2csc(Nc3ccccn3)n2)cc1
Given back: 87.6

Asked: Lookup: inhibition at 100 µg/mL / human tyrosinase (Homo sapiens) / CN(c1ccccc1)c1nc(-c2ccc(O)cc2)cs1
Given back: 87.9

Asked: Lookup: inhibition at 100 µg/mL / human tyrosinase (Homo sapiens) / Oc1ccc(-c2csc(N3CCOCC3)n2)c(O)c1
Given back: 90.3

Asked: Lookup: inhibition at 100 µg/mL / human tyrosinase (Homo sapiens) / Oc1ccc(-c2csc(Nc3ccccc3)n2)c(O)c1
Given back: 100

Asked: Lookup: inhibition at 100 µg/mL / human tyrosinase (Homo sapiens) / O=C(Nc1nc(-c2ccc(O)cc2O)cs1)c1ccccc1
Given back: 100

Asked: Lookup: inhibition at 100 µg/mL / human tyrosinase (Homo sapiens) / Oc1ccc(-c2csc(Nc3ncccn3)n2)c(O)c1
Given back: 93.1

Asked: Lookup: inhibition at 100 µg/mL / human tyrosinase (Homo sapiens) / Oc1ccc(-c2csc(Nc3ncccn3)n2)cc1
Given back: 61.3

Asked: Lookup: inhibition at 100 µg/mL / human tyrosinase (Homo sapiens) / Oc1ccc(-c2csc(NN3CCOCC3)n2)c(O)c1
Given back: 82.9
